Each entry below carries its recorded Population Apoptotic (%).
- Tested on: HEK-293T
- method_notes: Multiplex assay against HEK293T
- Format: toxicity, cell-based
- applied_conditions: human, 24 h, 1 µM, compound concentration 1 uM, replicate 2
Respond numerically; units are % and should not be typed.

Reference set, count: 5
• Cc1cc(C)c(S(=O)(=O)N(Cc2ccc(-c3cccc(S(C)(=O)=O)c3)cc2)Cc2ccc(C(F)(F)F)o2)c(C)c1 = 9
• Cc1cn(-c2cc(NC(=O)c3ccc(C)c(Nc4nccc(-c5cccnc5)n4)c3)cc(C(F)(F)F)c2)cn1 = 18
• Cc1ccc2nc(NCCN)c3ncc(C)n3c2c1.O=C(O)C(F)(F)F.O=C(O)C(F)(F)F = 5
• COc1cccc2cc(-c3nc([C@H]4CC[C@H](C(=O)O)CC4)n4ncnc(N)c34)[nH]c12 = 4
• COc1cc2ncnc(Nc3ccc(F)c(Cl)c3)c2cc1NC(=O)/C=C/CN1CCCCC1 [DACOMITINIB ANHYDROUS] = 6

Task: GET /values?readout=Population Apoptotic (%)&item= CCCS(=O)(=O)c1nc(NC2CC2)cc(-c2ccc3c(ccn3C3CC(C)(C)NC(C)(C)C3)c2)n1
Output: 31

Task: GET /values?readout=Population Apoptotic (%)&item= CCCn1c(=O)c2[nH]c(-c3cnn(Cc4cccc(C(F)(F)F)c4)c3)nc2n(CC)c1=O
Output: 13

Task: GET /values?readout=Population Apoptotic (%)&item= CN1CCC(=C2c3ccccc3CC(=O)c3sccc32)CC1.O=C(O)/C=C/C(=O)O [KETOTIFEN FUMARATE]
Output: 13

---

- Tested on: HEK-293T
- method_notes: Multiplex assay against HEK293T
- Format: toxicity, cell-based
- applied_conditions: human, 12 h, 1 µM, compound concentration 1 uM, replicate 1
Each entry below carries its recorded Population Mitochondria Different-Phenotype (%).
Respond numerically; units are % and should not be typed.

Reference set, count: 6
• CCOc1cc2ncc(C#N)c(Nc3ccc(OCc4ccccn4)c(Cl)c3)c2cc1NC(=O)/C=C/CN(C)C [NERATINIB] = 85
• O=C(Cc1ccc(-c2ccc(OCCN3CCOCC3)cc2)cn1)NCc1ccccc1 [TIRBANIBULIN] = 58
• CN1C2CCC1CC(OC(c1ccc(F)cc1)c1ccc(F)cc1)C2.Cl (stereo not drawn) = 84
• CCc1cccc(CC)c1NC(=O)c1nn(C)c2c1CCc1cnc(Nc3ccc(N4CCN(C)CC4)cc3OC)nc1-2 = 32
• O=C(Nc1ccc(-n2nc(-c3cccnc3)cc2C(F)(F)F)cn1)c1ccc(-c2ccccc2)c(F)c1 [BI 2049] = 60
• CN(C)C(=O)C(CCN1CCC(O)(c2ccc(Cl)cc2)CC1)(c1ccccc1)c1ccccc1.Cl [LOPERAMIDE HYDROCHLORIDE] = 92

Task: GET /values?readout=Population Mitochondria Different-Phenotype (%)&item= O=C1N/C(=N/c2ccccc2F)S/C1=C\c1ccc(C(=O)O)cc1
Output: 70

Task: GET /values?readout=Population Mitochondria Different-Phenotype (%)&item= O=C1NC(=O)C(c2cnc3ccccn23)=C1c1cn2c3c(cc(F)cc13)CN(C(=O)N1CCCCC1)CC2 [LY-2090314]
Output: 93

---

- Tested on: U2OS
- method_notes: Incucyte cell viability with U2OS; also: filed as whole numbers so only -1 and 0 and 1 occur
- Type: toxicity, cell-based
- applied_conditions: human, 12 h, 10 µM, compound concentration 10 uM, replicate number 1, timepoint 12 hours
value_type: Growth Rate
Answer using only a numeral; do not append any unit.

- Cc1ccc(-c2cnc([C@@]3(O)CC[C@H](C(=O)O)C(C)(C)C3)s2)cc1Nc1cccc(C(F)(F)F)n1: 0

Task: GET /values?readout=Growth Rate&item= Cc1nnn(-c2ccc(-c3ccc(C4(C(=O)O)CC4)cc3)cc2)c1NC(=O)O[C@H](C)c1ccccc1
Output: 1

Task: GET /values?readout=Growth Rate&item= Cl.O=C([C@@H](Cc1cccc(C(F)(F)F)c1)NS(=O)(=O)c1cc(F)c2c(c1)CCNC2)N1CCCC1
Output: 1

Task: GET /values?readout=Growth Rate&item= CCC(=N\O)/C(C)=C/c1ccc(F)c(C)c1
Output: 1

---

- Tested on: Fibroblast
- method_notes: Multiplex assay against human fibroblast
- Type: toxicity, cell-based
- applied_conditions: 12 h, 10 µM, compound concentration 10 uM, replicate 2
Each entry below carries its recorded Population Mitochondria Different-Phenotype (%).
Reply with a number, then the unit it belongs to.

• O=C(Nc1ccc(Cl)cc1)Nc1cccc(-c2cccc(N3CCCC3)n2)c1 = 7%
• CN1CCN(C(=O)C(C)(C)c2ccc(C(=O)Nc3cn4cc(-c5cc(C(C)(C)C)cc(C(C)(C)C)c5)ccc4n3)cc2)CC1 [T3-CLK-N] = 23%
• S=C(NCCCc1c[nH]cn1)NCCCN(Cc1ccc(Cl)c(Cl)c1)c1ccc(Br)cn1 = 100%

Task: GET /values?readout=Population Mitochondria Different-Phenotype (%)&item= CCOc1cc(C(=O)N2CCC(N3CCN(C)CC3)CC2)ccc1Nc1ncc2c(n1)N(C1CCCC1)c1ccccc1C(=O)N2C
Output: 97%

Task: GET /values?readout=Population Mitochondria Different-Phenotype (%)&item= Cc1cn(-c2cc(NC(=O)c3ccc(C)c(Nc4nccc(-c5cccnc5)n4)c3)cc(C(F)(F)F)c2)cn1 [NILOTINIB]
Output: 61%

Task: GET /values?readout=Population Mitochondria Different-Phenotype (%)&item= CN1CCC(=C2c3ccccc3CC(=O)c3sccc32)CC1.O=C(O)/C=C/C(=O)O [KETOTIFEN FUMARATE]
Output: 90%

Task: GET /values?readout=Population Mitochondria Different-Phenotype (%)&item= CCn1cc(-c2ccnc3[nH]c(-c4cccc(CN(C)C)c4)cc23)c(-c2ccc(NC(=O)N(C)C)cc2)n1 [GSK-1070916]
Output: 13%

Task: GET /values?readout=Population Mitochondria Different-Phenotype (%)&item= O=C(Cc1ccc(-c2ccc(OCCN3CCOCC3)cc2)cn1)NCc1ccccc1 [TIRBANIBULIN]
Output: 19%

---

Each entry below carries its recorded Population Pyknosed Nuclei (%).
- System: HEK-293T
- method_notes: Multiplex assay against HEK293T
- Assay type: toxicity, cell-based
- applied_conditions: human, 12 h, 10 µM, compound concentration 10 uM, replicate 1
Respond numerically; units are % and should not be typed.

* COc1cc(N2CCN(C)CC2)ccc1Nc1ncc2c(n1)N(C)c1ccccc1C(=O)N2C | 70
* CCN1CCN(c2ccc(Nc3cc(N(C)C(=O)Nc4c(Cl)c(OC)cc(OC)c4Cl)ncn3)cc2)CC1 [INFIGRATINIB] | 23
* COc1ccc(S(=O)(=O)N(CCO)c2ccccc2CN(C)C/C=C/c2ccc(Cl)cc2)cc1.O=P(O)(O)O | 21

Task: GET /values?readout=Population Pyknosed Nuclei (%)&item= Cc1cn(-c2cc(NC(=O)c3ccc(C)c(Nc4nccc(-c5cccnc5)n4)c3)cc(C(F)(F)F)c2)cn1 [NILOTINIB]
Output: 32

---

- System: HEK-293T
- method_notes: Multiplex assay against HEK293T
- Format: toxicity, cell-based
- applied_conditions: human, 24 h, 10 µM, compound concentration 10 uM, replicate 2
In this scheme, each record receives a class according to its Population Fragmented Nuclei (%); the ranges are low = under 6%, moderate = from 6% up to 10%, high = 10% and over

Please review the following examples before continuing.
• CCOc1cc2ncc(C#N)c(Nc3ccc(OCc4ccccn4)c(Cl)c3)c2cc1NC(=O)/C=C/CN(C)C [NERATINIB] = high
• CCCS(=O)(=O)c1nc(NC2CC2)cc(-c2ccc3c(ccn3C3CC(C)(C)NC(C)(C)C3)c2)n1 = high
• CN(C)C(=O)C(CCN1CCC(O)(c2ccc(Cl)cc2)CC1)(c1ccccc1)c1ccccc1.Cl [LOPERAMIDE HYDROCHLORIDE] = moderate
• CN1CCC(=C2c3ccccc3CC(=O)c3sccc32)CC1.O=C(O)/C=C/C(=O)O [KETOTIFEN FUMARATE] = low
• COc1ccc(-c2ccc3c(N4CCOCC4)nc(N4C[C@@H](C)O[C@@H](C)C4)nc3n2)cc1CO [Ku-0063794] = high

Task: Form field 'band' for CCn1c(=O)c(-c2ccc(-c3cncs3)cc2Cl)cc2cnc(Nc3ccc(N4CCN(C)CC4)cc3)nc21
Output: high

Task: Form field 'band' for CCN1CCN(c2ccc(Nc3cc(N(C)C(=O)Nc4c(Cl)c(OC)cc(OC)c4Cl)ncn3)cc2)CC1 [INFIGRATINIB]
Output: high

Task: Form field 'band' for Cl.Oc1ccc2c3c1O[C@H]1c4[nH]c5c(c4C[C@@]4(O)[C@@H](C2)N(CC2CC2)CC[C@]314)C[C@@]1(O)[C@H]2Cc3ccc(O)c4c3[C@@]1(CCN2CC1CC1)[C@H]5O4
Output: low

Task: Form field 'band' for Cc1ccc2nc(NCCN)c3ncc(C)n3c2c1.O=C(O)C(F)(F)F.O=C(O)C(F)(F)F
Output: moderate

Task: Form field 'band' for CCn1cc(-c2ccnc3[nH]c(-c4cccc(CN(C)C)c4)cc23)c(-c2ccc(NC(=O)N(C)C)cc2)n1 [GSK-1070916]
Output: low

Task: Form field 'band' for S=C(NCCCc1c[nH]cn1)NCCCN(Cc1ccc(Cl)c(Cl)c1)c1ccc(Br)cn1
Output: moderate

Task: Form field 'band' for O=C(Cc1ccc(-c2ccc(OCCN3CCOCC3)cc2)cn1)NCc1ccccc1 [TIRBANIBULIN]
Output: low

Task: Form field 'band' for O=C(Nc1cccnn1)N1CCC(=Cc2cccc(Oc3ccc(C(F)(F)F)cn3)c2)CC1
Output: high

Task: Form field 'band' for CN1C2CCC1CC(OC(c1ccc(F)cc1)c1ccc(F)cc1)C2.Cl (stereo unspecified)
Output: low
